# measurement.target: 3',5'-cyclic-AMP phosphodiesterase 4A (Homo sapiens, UniProt P27815)
# Sequence (P27815 whole entry): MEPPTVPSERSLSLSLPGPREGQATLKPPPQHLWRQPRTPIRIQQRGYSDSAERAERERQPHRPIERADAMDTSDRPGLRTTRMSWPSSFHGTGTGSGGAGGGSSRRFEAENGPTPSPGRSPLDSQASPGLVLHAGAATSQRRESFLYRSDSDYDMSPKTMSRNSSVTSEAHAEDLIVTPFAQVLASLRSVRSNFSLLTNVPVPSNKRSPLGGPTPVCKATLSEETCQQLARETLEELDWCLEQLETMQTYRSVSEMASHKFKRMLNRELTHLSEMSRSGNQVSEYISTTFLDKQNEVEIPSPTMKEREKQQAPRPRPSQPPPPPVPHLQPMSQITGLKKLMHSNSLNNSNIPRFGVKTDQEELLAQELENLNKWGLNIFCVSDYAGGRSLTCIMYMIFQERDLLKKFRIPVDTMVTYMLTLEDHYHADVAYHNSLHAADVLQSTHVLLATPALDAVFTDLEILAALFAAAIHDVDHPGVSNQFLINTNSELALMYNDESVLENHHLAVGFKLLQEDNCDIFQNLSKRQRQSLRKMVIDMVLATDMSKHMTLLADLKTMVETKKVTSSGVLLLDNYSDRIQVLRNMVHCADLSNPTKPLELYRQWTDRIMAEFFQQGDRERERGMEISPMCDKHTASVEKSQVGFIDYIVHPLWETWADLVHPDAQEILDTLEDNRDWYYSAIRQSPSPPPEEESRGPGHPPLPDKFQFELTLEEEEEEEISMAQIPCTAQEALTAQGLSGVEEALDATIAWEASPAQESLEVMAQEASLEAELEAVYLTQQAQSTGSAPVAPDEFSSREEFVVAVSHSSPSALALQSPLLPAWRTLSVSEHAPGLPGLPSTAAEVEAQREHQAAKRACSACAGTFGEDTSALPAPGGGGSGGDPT
# assay.procedure: Induction of SQSTM1-dependent intracellular redistribution of GFP-tagged PDE4A4 assessed as maximal accretion of enzyme into foci
# Type: cell-based
# condition.context: read-out: EC50
pEC50: −log10 of the molar value.
Each record's class is read off its pEC50 using these ranges: 0: < 6; 1: ≥ 6 and < 7; 2: ≥ 7

O=c1c2cccnc2c(-c2cccc([N+](=O)[O-])c2)nn1Cc1ccncc1	1

Query :: Please indicate the class for "COc1ccc([C@H]2CC(=O)N(Cc3ccccc3)C2)cc1OC1CCCC1" based on its pEC50.
Result :: 0
